Source: patent US4410626A

# Tested on: Proteus mirabilis
# Test: Antibacterial activity, plate disc method (diameter of inhibitory circle), Proteus mirabilis
# Type: cell-based
# Design: unit not given here
# Test settings: 100 γ/ml; pH 8.0, plate disc method
Metric name: diameter of inhibitory circle
Just the number, please.

Below are worked cases with known answers.
>>> recorded_result("CO[C@@]1(NC(=O)CCCC(=O)O)C(=O)N2C(C(=O)O)=C(COC(=O)/C=C/c3ccc(O)cc3)CS[C@@H]21")
18.0
>>> recorded_result("CO[C@@]1(NC(=O)CCCC(N)C(=O)O)C(=O)N2C(C(=O)O)=C(CSc3nnnn3C)CS[C@@H]21 (some centres unmarked) [Y-G19Z-G, reference compound]")
21.6
>>> recorded_result("CO[C@@]1(NC(=O)CCC[C@@H](N)C(=O)O)C(=O)N2C(C(=O)O)=C(COC(=O)/C=C/c3ccc(OS(=O)(=O)O)cc3)CS[C@@H]21")
22.3
>>> recorded_result("CO[C@@]1(NC(=O)CCCC(=O)O)C(=O)N2C(C(=O)O)=C(COC(=O)/C=C/c3ccc(OS(=O)(=O)O)cc3)CS[C@@H]21")
17.6

Next compound, diameter of inhibitory circle to be filled in.
Which diameter of inhibitory circle is reported for this compound? CO[C@@]1(NC(=O)CCC[C@@H](N)C(=O)O)C(=O)N2C(C(=O)O)=C(COC(=O)/C=C/c3ccc(O)cc3)CS[C@@H]21
22.0
